Each entry below lists one item and its recorded one-hybrid fitness for binding NBS DNA value.
B1: Caulobacter ParB omega fusion; a variant is named by its letters at X, in order, B8GW30 (parent)
chain: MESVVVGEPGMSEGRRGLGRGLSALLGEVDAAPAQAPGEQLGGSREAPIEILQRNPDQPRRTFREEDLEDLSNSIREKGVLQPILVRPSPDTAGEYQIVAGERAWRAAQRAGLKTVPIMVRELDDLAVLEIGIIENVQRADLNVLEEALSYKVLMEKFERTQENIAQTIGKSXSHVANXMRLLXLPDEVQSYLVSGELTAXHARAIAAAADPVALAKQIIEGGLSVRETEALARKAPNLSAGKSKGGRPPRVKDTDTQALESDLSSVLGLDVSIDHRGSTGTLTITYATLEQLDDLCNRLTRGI

- Variants of: B1
- method.notes: one-hybrid fitness for binding NBS DNA (the Noc-binding site; scaled: cognate 1, non-cognate 0); higher = stronger binding
- assay.setup: with NBS DNA site
Over roughly 81,000 sequences, “one-hybrid fitness for binding NBS DNA” has its median near -0.1; the highest 2% begin near 0.36. The full list was thinned out, with the highest values kept by preference.

Worked cases, answers included:
INSERT INTO assay_data (mutation_spec, reading) VALUES
  ('QTLT', 0.527),
  ('APSI', '≤ 0.2'),
  ('QCYN', '≤ 0.2'),
  ('QWNT', '≤ 0.2'),
  ('QRDP', '≤ 0.2');

Q: Param item = "KSHR" ; retrieve measured one-hybrid fitness for binding NBS DNA.
Result: ≤ 0.2

Q: Give the measured one-hybrid fitness for binding NBS DNA of "AAYK" .
Result: ≤ 0.2
